The measurements presented in this section are drawn from PubChem BioAssay (EPA / NIEHS).

assay: TOX21_p53_BLA_p5_viability: Viability Assessment in the Tox21 HCT-116 p53 Agonism Beta-lactamase Assay, Phase 5 (AID 2283600)
Results filed as inconclusive are left out. The source made the active and inactive calls. The calls were made as follows: active = hit-call score of the fitted dose curve at least 0.9, where 1 is the maximum; inconclusive = response in the unintended direction; inactive = score below 0.9.
Would you mind answering with one of these outcomes? active, inactive

## Task Outcome logged for `CCCCN(CCCC)CCCOC(=O)c1ccc(N)cc1` in this assay:
## Result inactive

## Task Outcome logged for `O=S(=O)(O)CCS` in this assay:
## Result inactive

## Task Outcome logged for CSc1ccc2c(c1)C(N1CCN(C)CC1)Cc1ccccc1S2 (stereo not drawn) in this assay:
## Result active

## Task Outcome logged for `CCOC(=O)CC(=O)c1cc(F)c(Cl)nc1Cl` in this assay:
## Result inactive

## Task Outcome logged for `COC(=O)CCC(=O)CN` in this assay:
## Result inactive

## Task Outcome logged for `CC1=C(/C=C/C(C)=C/C=C/C(C)=C\C(=O)O)C(C)(C)CCC1` in this assay:
## Result inactive

More entries:
## Task Outcome logged for `C1CCC2=NCCCN2CC1` in this assay:
## Result inactive

## Task Outcome logged for `c1ccc(CNc2ncnc3nc[nH]c23)cc1` in this assay:
## Result inactive

## Task Outcome logged for `CC(=O)[C@]1(O)Cc2c(O)c3c(c(O)c2[C@@H](O[C@H]2C[C@H](N)[C@H](O)[C@H](C)O2)C1)C(=O)c1c(O)cccc1C3=O` in this assay:
## Result inactive

* * *

experiment: TOX21_p53_BLA_p5_viability: Viability Assessment in the Tox21 HCT-116 p53 Agonism Beta-lactamase Assay, Phase 5 (AID 2283600)
Inconclusive results are not listed. Activity calls are given as the source filed them. The calls were made as follows: active = hit-call score of the fitted dose curve at least 0.9, where 1 is the maximum; inconclusive = response in the unintended direction; inactive = score below 0.9.
Would you mind answering with one of these outcomes? label 1 = active, label 0 = inactive

Example entries begin here.
## Task Outcome logged for `O=C1NCN(c2ccccc2)C12CCN(CCCC(c1ccc(F)cc1)c1ccc(F)cc1)CC2` in this assay:
## Result label 1

## Task Outcome logged for CC(C)COCC(CN(Cc1ccccc1)c1ccccc1)N1CCCC1 (stereo not drawn) in this assay:
## Result label 0

## Task Outcome logged for `Oc1c(Cl)cc(Cl)c2cccnc12` in this assay:
## Result label 0

## Task Outcome logged for `CCOC(=O)c1cccc(N)c1` in this assay:
## Result label 0

## Task Outcome logged for `COC(=O)C1=C(C)NC(C)=C(C(=O)OC)C1c1ccccc1[N+](=O)[O-]` in this assay:
## Result label 0

Field: next compound
## Task Outcome logged for `CCOC(=O)COc1ccc(C)cc1` in this assay:
## Result label 0

* * *

read-out: Tissue plasminogen activator (tPA), PLAT (gene 5327); test: BSK_BE3C_tPA: BioMAP Diversity Plus: BE3C Assay for Tissue plasminogen activator (tPA) Biomarker Activity (AID 2283041); details: primary human bronchial epithelial cells; actives raise or lower the signal;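 as to Outcome: tPA level quantified by ELISA one day after compound addition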
Activity calls are given as the source filed them. The calls were made as follows: active = hit-call score of the fitted dose curve at least 0.9, where 1 is the maximum; inactive = score below 0.9.
Would you mind answering with one of these outcomes? T = active, F = inactive

Example entries begin here.
## Task Outcome logged for `CCC[Si](OC(C)=O)(OC(C)=O)OC(C)=O` in this assay:
## Result F

## Task Outcome logged for `Oc1cccc2ccccc12` in this assay:
## Result F

More entries:
## Task Outcome logged for `CC[N+](CC)(CC(=O)Nc1c(C)cccc1C)Cc1ccccc1` in this assay:
## Result F

## Task Outcome logged for `CCCCCCCCCCCCCCCCCC[N+](C)(C)C` in this assay:
## Result T

## Task Outcome logged for `C1CN(CCOCCN2CCOCC2)CCO1` in this assay:
## Result F

## Task Outcome logged for CCCCCCCCCC/C=C/C1CC(=O)OC1=O (centres undefined) in this assay:
## Result T

## Task Outcome logged for `CCC(C)=NO` in this assay:
## Result F

## Task Outcome logged for CN(C)CCC(c1ccc(Cl)cc1)c1ccccn1 (centres undefined) in this assay:
## Result F

## Task Outcome logged for `CN(C)c1ccc(C(c2ccccc2)c2ccc(N(C)C)cc2)cc1` in this assay:
## Result T

## Task Outcome logged for CC[N+](CC)(CC(=O)Nc1c(C)cccc1C)Cc1ccccc1 (tested in a mixture with another compound) in this assay:
## Result F
